The values you see were collected from ChEMBL document CHEMBL1130115.

# study_target: Adenosine receptor A2a (Rattus norvegicus) (UniProt P30543)
# Sequence (P30543 whole entry): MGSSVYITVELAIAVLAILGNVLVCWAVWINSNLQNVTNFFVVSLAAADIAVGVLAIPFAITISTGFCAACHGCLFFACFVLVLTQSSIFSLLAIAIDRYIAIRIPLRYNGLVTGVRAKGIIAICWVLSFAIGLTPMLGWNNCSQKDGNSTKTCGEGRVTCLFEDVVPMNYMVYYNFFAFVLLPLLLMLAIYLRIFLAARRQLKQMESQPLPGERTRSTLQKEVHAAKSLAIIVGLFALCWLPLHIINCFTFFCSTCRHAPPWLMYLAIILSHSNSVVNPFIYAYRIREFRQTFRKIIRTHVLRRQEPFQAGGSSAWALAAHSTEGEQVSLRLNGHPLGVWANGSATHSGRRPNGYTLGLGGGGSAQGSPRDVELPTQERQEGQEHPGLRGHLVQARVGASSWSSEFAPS
# method_summary: Displacement of specific [3H]-CGS- 21680 binding at adenosine A2A receptor in rat striatal membranes.
# Type: cell membranes
# Set-up: concentration or dose not given beside the values
# measurement_parameters: Membrane; concentration not given here
measurement_name: inhibition (%)

A = CCO/C(O)=C1\C(C)=NC(c2ccccc2)=C(C(=O)OCc2cc(C(F)(F)F)cc(C(F)(F)F)c2)C1C#Cc1ccccc1 (stereo not drawn)
B = CCO/C(O)=C1\C(C)=NC(c2ccccc2)=C(C(=O)OCc2cccc(I)c2)C1C#Cc1ccccc1 (stereo not drawn)
Query block: Of A and B , whose reported inhibition is the larger number? Answer with the label corresponding to your selection.
Result block: A

P = CCO/C(O)=C1\C(C)=NC(c2ccccc2)=C(C(=O)OCc2cc([N+](=O)[O-])cc([N+](=O)[O-])c2)C1C#Cc1ccccc1 (stereo not drawn)
Q = CCOC(=O)C1=C(c2ccccc2)N=C(C)/C(=C(/O)OC(C)(C)C)C1C#Cc1ccccc1 (stereo not drawn)
Query block: Please compare: P and Q . Report which one has the smaller inhibition value. Choose, then provide that item's label.
Result block: Q
(Q: 20%, P: 40%)

I = CCO/C(O)=C1\C(C)=NC(c2ccccc2)=C(C(=O)OCC[Si](C)(C)C)C1C#Cc1ccccc1 (stereo not drawn)
II = CCNC(=O)C1=C(c2ccccc2)N(COCC)C(C)=C(C(=O)OCC)C1C#Cc1ccccc1 (stereo not drawn)
Query block: Quick check, higher inhibition between I and II ? Use the label to indicate which entry you chose.
Result block: II

* * *

# study_target: Adenosine receptor A2a (Rattus norvegicus)
# method_summary: Displacement of specific [3H]-CGS- 21680 binding at adenosine A2A receptor in rat striatal membranes.
# Type: cell membranes
# Parameters: concentration or dose not given beside the values
# measurement_parameters: Membrane; concentration not given here
measurement_name: inhibition (%)

For reference, reported inhibition for CCOC(=O)C1=C(c2ccccc2)N=C(C)/C(=C(/O)OCC)C1C#Cc1ccccc1 (stereo not drawn) stands at 26

Record CCOC(=O)C1=C(c2ccccc2)N=C(C)/C(=C(/O)OCC)C1C#Cc1ccc([N+](=O)[O-])cc1 (stereo not drawn) . Reported inhibition: 24

Entry under test: CCO/C(O)=C1\C(C)=NC(c2ccccc2)=C(C(=O)OCc2ccc(C(F)(F)F)cc2)C1C#Cc1ccccc1 (stereo not drawn) . Its inhibition was 15

Recorded result, CCO/C(O)=C1\C(C)=NC(c2ccccc2)=C(C(=O)OCc2ccc(C)cc2)C1C#Cc1ccccc1 (stereo not drawn) , inhibition: 17

I = CCO/C(O)=C1\C(C)=NC(c2ccccc2)=C(C(=O)SCC)C1C#Cc1ccccc1 (stereo not drawn)
II = CCO/C(O)=C1\C(C)=NC(c2ccccc2)=C(C(=O)OCc2ccc(C(=O)OCC(Cl)(Cl)Cl)cc2)C1C#Cc1ccccc1 (stereo not drawn)
III = CCOC(=O)C1=C(c2ccccc2)N=C(C)/C(=C(/O)OCC)C1c1ccco1 (stereo not drawn)
IV = CCOC(=O)C1=C(c2ccccc2)N=C(C)/C(=C(/O)OCC)C1/C=C/c1ccc(N)cc1 (stereo not drawn)
Query block: Falling order of inhibition, please. Output spec: labels arranged per the requested ranking.
Result block: III, IV, I, II
(III: 45%, IV: 26%, I: 17%, II: 11%)
